Entry source: ChEMBL document CHEMBL1142434

ASSAYED TARGET: Hematopoietic prostaglandin D synthase (Homo sapiens, UniProt O60760)
Sequence (O60760 whole entry): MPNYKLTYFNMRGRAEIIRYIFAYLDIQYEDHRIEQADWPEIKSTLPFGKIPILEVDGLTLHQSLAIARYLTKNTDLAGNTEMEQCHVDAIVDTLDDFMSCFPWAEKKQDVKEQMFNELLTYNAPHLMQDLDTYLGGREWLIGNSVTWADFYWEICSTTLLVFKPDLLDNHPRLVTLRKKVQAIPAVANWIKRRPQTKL
ASSAY EXPLANATION: Inhibition of glutathione-S-transferase activity of prostaglandin D2 synthase
METRIC NAME: IC50 (µM)

Cc1ccc(-c2cc[nH]n2)cn1: 34.7

P = Cc1ccc(NC(=O)c2cc(-c3ccccc3)ns2)cc1NC(=O)c1cccc(CN2CCN(C)CC2)c1
Q = COc1ccc(C(=O)CBr)c2ccccc12
R = Cc1ccc(-c2cc3c(nn2)-c2ccccc2C3=O)cc1
S = CCOC(=O)c1cc(O)c(-c2ccccc2)nn1
T = COC(=O)c1ccc(-c2nnc(-c3ccncc3)[nH]2)nc1
**Query** Falling order of IC50, please. Answer format: the labels, in the requested order.
**Result** S, Q, R, T, P
(S: 45 µM, Q: 12.4 µM, R: 3.8 µM, T: 1.5 µM, P: 0.075 µM)

A = COc1ccc(-c2cnn(-c3ccccc3)c2N)cc1OC
B = O=C1c2ccccc2-c2nnc(-c3ccc(O)cc3)cc21
C = Oc1c(Cl)cc(Cl)cc1-c1cc[nH]n1
D = COc1ccccc1-c1csc(Nc2ccc(C(=O)O)cc2)n1
**Query** Falling order of IC50, please. Answer format: the labels, in the requested order.
**Result** A, C, B, D
(A: 33 µM, C: 17.4 µM, B: 3.8 µM, D: 0.994 µM)
